# Method Summary: Saturation solubility of HupA in oils, surfactants and co-surfactants
# Assay type: physicochemical
# Study Conditions: L.A.S, 37 °C, thermodynamic from solid
Endpoint Name: solubility at 24 h (mg/mL)
Numbers only, in mg/mL.

Q: Can you share its solubility at 24 h? I mean this compound: C/C=C1\[C@H]2C=C(C)C[C@]1(N)c1ccc(=O)[nH]c1C2
A: 35

---

# Method Summary: Saturation solubility of HupA in oils, surfactants and co-surfactants
# Assay type: physicochemical
# Study Conditions: LABRAFIL M 1944 CS, 37 °C, oil or lipid, thermodynamic from solid
Endpoint Name: solubility at 24 h (mg/mL)
One number for each entry, in mg/mL.

Q: Can you share its solubility at 24 h? I mean this compound: C/C=C1\[C@H]2C=C(C)C[C@]1(N)c1ccc(=O)[nH]c1C2
A: 19.7

---

# Method Summary: Saturation solubility of HupA in oils, surfactants and co-surfactants
# Assay type: physicochemical
# Study Conditions: Propanediol, 37 °C, organic solvent or mixture, thermodynamic from solid
Endpoint Name: solubility at 24 h (mg/mL)
Give bare numbers, in mg/mL.

Q: Can you share its solubility at 24 h? I mean this compound: C/C=C1\[C@H]2C=C(C)C[C@]1(N)c1ccc(=O)[nH]c1C2 [HupA, Huperzine A]
A: 65.3

---

# Method Summary: Saturation solubility of HupA in oils, surfactants and co-surfactants
# Type: physicochemical
# Study Conditions: PEG400, 37 °C, organic solvent or mixture, thermodynamic from solid
Endpoint Name: solubility at 24 h (mg/mL)
Numbers only, in mg/mL.

Q: Can you share its solubility at 24 h? I mean this compound: C/C=C1\[C@H]2C=C(C)C[C@]1(N)c1ccc(=O)[nH]c1C2
A: 98.4

---

# Method Summary: Saturation solubility of HupA in oils, surfactants and co-surfactants
# Format: physicochemical
# Study Conditions: Span 80, 37 °C, thermodynamic from solid
Endpoint Name: solubility at 24 h

Q: Can you share its solubility at 24 h? I mean this compound: C/C=C1\[C@H]2C=C(C)C[C@]1(N)c1ccc(=O)[nH]c1C2
A: 13.3 mg/mL

---

# Method Summary: Saturation solubility of HupA in oils, surfactants and co-surfactants
# Format: physicochemical
# Study Conditions: isopropyl myristate (IPM), 37 °C, oil or lipid, thermodynamic from solid
Endpoint Name: solubility at 24 h (µg/mL)
Answers are plain numbers, in µg/mL.

Q: Can you share its solubility at 24 h? I mean this molecule: C/C=C1\[C@H]2C=C(C)C[C@]1(N)c1ccc(=O)[nH]c1C2
A: 2430

---

# Method Summary: Saturation solubility of HupA in oils, surfactants and co-surfactants
# Type: physicochemical
# Study Conditions: Plurol Oleique CC 497, 37 °C, thermodynamic from solid
Endpoint Name: solubility at 24 h (mg/mL)
Answers are plain numbers, in mg/mL.

Q: Can you share its solubility at 24 h? I mean this molecule: C/C=C1\[C@H]2C=C(C)C[C@]1(N)c1ccc(=O)[nH]c1C2
A: 15.5
